test: chemical genetic growth profiling, strain panel (AID 1159580);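 further: tested at 20 µM; growth read once vehicle control cultures reached saturation at 30 °C; 1 = growth at the plate median or of vehicle wells; lower values mean less growth of the strain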; settings: S. cerevisiae deletion strains, growth OD, locus YJL154C, strain vps35, active compounds read low
Hit rate of the full screen: of about 5,500 compounds, about 2,000 (36%) were called active. Roughly 18% stayed inconclusive and do not appear here. The list shows a part of the results.
Each item that follows carries a reported normalized growth.

Consider the worked cases shown below.
{"compound": "O=NN(CCCl)C(=O)NCCCl", "assay_result": "0.975 (inactive)"}
{"compound": "Cc1onc(-c2ccccc2)c1-c1ccc(S(N)(=O)=O)cc1", "assay_result": "1.01 (inactive)"}
{"compound": "CC[C@@H]1OC(=O)C[C@@H](O)[C@H](C)[C@@H](O[C@@H]2O[C@H](C)[C@@H](O)[C@H](N(C)C)[C@H]2O)[C@@H](CCN2C[C@H](C)C[C@H](C)C2)C[C@@H](C)C(=O)/C=C/C(C)=C\\[C@@H]1CO[C@@H]1O[C@H](C)[C@@H](O)[C@@H](OC)[C@H]1OC", "assay_result": "1.02 (inactive)"}
{"compound": "FC(F)(F)c1cccc(N2CCNCC2)c1", "assay_result": "1 (inactive)"}
{"compound": "C[C@@H]1CC[C@H]2C(C)(C)C3CC12CC[C@@]3(C)O (some centres undefined)", "assay_result": "0.983 (inactive)"}
{"compound": "C[C@@H]1CC2C3CCC4=CC(=O)C=C[C@]4(C)[C@@]3(F)[C@@H](O)C[C@]2(C)[C@@]1(O)C(=O)CO (some centres undefined)", "assay_result": "0.951 (inactive)"}
{"compound": "CCCNC(=O)NS(=O)(=O)c1ccc(Cl)cc1", "assay_result": "1.01 (inactive)"}
{"compound": "NC1(C(=O)O)CCCC1", "assay_result": "1.02 (inactive)"}

Respond only with normalized growth recorded for CC1CCC(NC(=O)N(CCCl)N=O)CC1 (centres undefined) 0.975 (inactive)
